// provenance: the Immune Epitope Database (IEDB)

# assayed_system: HLA-B*39:01
# assay: IEDB peptide-MHC binding, purified MHC/direct/fluorescence; filed as Kd, often an IC50 or EC50 that approximates it; bounds were set here for any values at or beyond the usual limits of such assays
# protocol_conditions: source organism: Influenza A virus (A/swine/Italy/1850/1977(H3N2))
endpoint_name: Kd

Give the measured Kd of `MRMGDLHLL` .
39.6 nM

###

# assayed_system: HLA-B*15:09
# assay: IEDB peptide-MHC binding, purified MHC/direct/fluorescence; filed as Kd, often an IC50 or EC50 that approximates it; bounds were set here for any values at or beyond the usual limits of such assays
# protocol_conditions: source organism: Influenza A virus(A/swine/Shandong/fNY/2003(H9N2))
endpoint_name: Kd

Give the measured Kd of `VAGGTSSVY` .
≥ 20 µM

Give the measured Kd of `NPALRMKWM` .
≥ 20 µM
